Recorded IC50 values for a group of compounds are listed next.
target: HCV polymerase (NS5B) type 1b (Hepatitis C virus genotype 1b, UniProt P26663); construct: a region encoding NS5B (J Virol 1991 March, 65(3), 1105-13, 544 amino acids after deletion of 47 amino acids on the C-terminal); 6xHis (C); made in house; host or cells: Escherichia coli; assay: Assay of enzyme (HCV polymerase) inhibitory activity, type 1b enzyme; assay type: biochemical, HCV BK strain (type 1b); details: HCV polymerase inhibitory activity (IC50), 1b, type 1b enzyme 0.5 μg/ml, 25° C., 60 min
Sequence (P26663 2420-2963): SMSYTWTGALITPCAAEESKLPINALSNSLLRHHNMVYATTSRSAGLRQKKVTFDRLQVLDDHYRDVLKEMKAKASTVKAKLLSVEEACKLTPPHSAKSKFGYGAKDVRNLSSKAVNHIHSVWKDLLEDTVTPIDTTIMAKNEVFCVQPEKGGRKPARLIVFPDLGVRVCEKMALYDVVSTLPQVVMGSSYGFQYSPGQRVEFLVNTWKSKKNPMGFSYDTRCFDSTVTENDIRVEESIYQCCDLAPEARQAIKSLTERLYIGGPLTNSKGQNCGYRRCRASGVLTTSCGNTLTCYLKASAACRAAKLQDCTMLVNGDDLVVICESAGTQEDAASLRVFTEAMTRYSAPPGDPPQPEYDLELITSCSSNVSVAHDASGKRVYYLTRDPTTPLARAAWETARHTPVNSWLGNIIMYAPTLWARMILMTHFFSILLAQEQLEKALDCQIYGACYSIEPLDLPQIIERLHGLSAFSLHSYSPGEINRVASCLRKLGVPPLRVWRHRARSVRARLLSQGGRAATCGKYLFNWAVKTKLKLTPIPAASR

Compound: CC(=O)N1CCN(S(=O)(=O)c2cc(Cl)cc(Cl)c2)C(C(=O)NCc2ccc(C(F)(F)F)cc2)C1 (stereo not shown)
IC50: > 1 µM
//
Compound: CCC(F)(F)c1ccc(CNC(=O)[C@H]2CN(c3cnc(CO)c(N)n3)CCN2S(=O)(=O)c2ccc(OC(F)(F)F)cc2)cc1
IC50: < 0.1 µM
//
Compound: CC(C)c1ccc(CNC(=O)[C@H]2CN(CC(N)=O)CCN2S(=O)(=O)c2ccc(C(F)(F)F)cc2)cc1
IC50: 0.1 to 1 µM
//
Compound: CC(=O)N1CCN(S(=O)(=O)c2ccc(C(C)C)cc2)C(C(=O)NCc2cccc(C(F)(F)F)c2)C1 (stereo not shown)
IC50: > 1 µM

====

target: HCV polymerase (NS5B) type 1b (Hepatitis C virus genotype 1b, UniProt P26663); construct: a region encoding NS5B (J Virol 1991 March, 65(3), 1105-13, 544 amino acids after deletion of 47 amino acids on the C-terminal); 6xHis (C); made in house; host or cells: Escherichia coli; experiment: Assay of enzyme (HCV polymerase) inhibitory activity, type 1b enzyme; assay type: biochemical, HCV BK strain (type 1b); conditions: HCV polymerase inhibitory activity IC50, 1b, type 1b enzyme
pIC50: −log10 of the molar value.
Assay metric: pIC50

Input smiles: CCc1ccc(S(=O)(=O)N2CCN(c3cnc(C(=O)O)cn3)C[C@@H]2C(=O)NCc2ccc(OC(F)(F)F)cc2)cc1
Assay metric: pIC50
Assay value: > 7.00

Input smiles: CCC(F)(F)c1ccc(CNC(=O)[C@H]2CN(c3cnc4cncnc4n3)CCN2S(=O)(=O)c2ccc(C(F)(F)F)cc2)cc1
Assay metric: pIC50
Assay value: > 7.00

Input smiles: CCCN1CCC(CNC(=O)[C@H]2CN(C(C)=O)CCN2S(=O)(=O)c2ccc(OC(F)(F)F)cc2)CC1
Assay metric: pIC50
Assay value: < 6.00

Input smiles: O=C(NCc1ccc(OC(F)(F)F)cc1)[C@H]1CN(c2nc3nnncc3s2)CCN1S(=O)(=O)c1ccc(OC(F)(F)F)cc1
Assay metric: pIC50
Assay value: > 7.00

Input smiles: CCOC(=O)c1ccc2nc(N3CCN(S(=O)(=O)c4ccc(OC(F)(F)F)cc4)[C@@H](C(=O)NCc4ccc(C(F)(F)CC)cc4)C3)cnc2c1
Assay metric: pIC50
Assay value: 6.00 to 7.00

Input smiles: O=C(NCc1ccc(OC(F)(F)F)cc1)[C@H]1CN(c2ccc3nccnc3n2)CCN1S(=O)(=O)c1ccc(OC(F)(F)F)cc1
Assay metric: pIC50
Assay value: > 7.00

Input smiles: CCCc1ccc(CNC(=O)[C@H]2CN(c3cnc(C(=O)O)cn3)CCN2S(=O)(=O)c2ccc(C(C)(C)C)cc2)cc1
Assay metric: pIC50
Assay value: > 7.00

Input smiles: O=C(O)Cn1ncc2sc(N3CCN(S(=O)(=O)c4ccc(OC(F)(F)F)cc4)[C@@H](C(=O)NCc4ccc(OC(F)(F)F)cc4)C3)nc2c1=O
Assay metric: pIC50
Assay value: > 7.00

Input smiles: O=C(NCc1ccc(OC(F)(F)F)cc1)[C@H]1CN(c2nc3nnncc3s2)CCN1S(=O)(=O)c1ccc(C(F)(F)F)cc1
Assay metric: pIC50
Assay value: > 7.00

Input smiles: O=C(NCc1ccc(OC(F)(F)F)cc1)[C@H]1CN(c2nc3nc(NCCO)ncc3s2)CCN1S(=O)(=O)c1ccc(OC(F)(F)F)cc1
Assay metric: pIC50
Assay value: > 7.00

Input smiles: CCCc1ccc(CNC(=O)[C@H]2CN(c3nc(C)c(S(=O)(=O)NC)s3)CCN2S(=O)(=O)c2ccc(OC(F)(F)F)cc2)cc1
Assay metric: pIC50
Assay value: > 7.00

Input smiles: NC(=O)c1ncc2sc(N3CCN(S(=O)(=O)c4ccc(OC(F)(F)F)cc4)[C@@H](C(=O)NCc4ccc(OC(F)(F)F)cc4)C3)nc2n1
Assay metric: pIC50
Assay value: > 7.00

Input smiles: CCCc1ccc(CNC(=O)[C@H]2CN(c3nc4cc(C(=O)OC(C)(C)C)ncc4s3)CCN2S(=O)(=O)c2ccc(OC(F)(F)F)cc2)cc1
Assay metric: pIC50
Assay value: > 7.00

Input smiles: CCC(F)(F)c1ccc(CNC(=O)[C@H]2CN(c3cnc4cncnc4n3)CCN2S(=O)(=O)c2ccc(-c3nc(=O)o[nH]3)cc2)cc1
Assay metric: pIC50
Assay value: > 7.00

Input smiles: CCC(F)(F)c1ccc(CNC(=O)[C@H]2CN(c3cnc4ccc(C(=O)O)cc4n3)CCN2S(=O)(=O)c2ccc(OC(F)(F)F)cc2)cc1
Assay metric: pIC50
Assay value: > 7.00

Input smiles: CCC(F)(F)c1ccc(CNC(=O)[C@H]2CN(C(=O)C(=O)O)CCN2S(=O)(=O)c2ccc(OC(F)(F)F)cc2)cc1
Assay metric: pIC50
Assay value: < 6.00

Input smiles: CCCc1ccc(CNC(=O)[C@H]2CN(c3cnc4cncc(C(=O)O)c4n3)CCN2S(=O)(=O)c2ccc(Cl)cc2)cc1
Assay metric: pIC50
Assay value: > 7.00

Input smiles: CCCc1ccc(CNC(=O)[C@H]2CN(c3nc4cc(C(=O)O)ncc4s3)CCN2S(=O)(=O)c2ccc(OC(F)(F)F)cc2)cc1
Assay metric: pIC50
Assay value: > 7.00

Input smiles: Cn1ncc2sc(N3CCN(S(=O)(=O)c4ccc(C(F)(F)F)cc4)[C@@H](C(=O)NCc4ccc(OC(F)(F)F)cc4)C3)nc2c1=O
Assay metric: pIC50
Assay value: > 7.00

Input smiles: O=C(NCc1ccc(OC(F)(F)F)cc1)[C@H]1CN(c2nc3nc(C(F)(F)F)ncc3s2)CCN1S(=O)(=O)c1ccc(OC(F)(F)C(F)F)cc1
Assay metric: pIC50
Assay value: > 7.00

Input smiles: CCC(F)(F)c1ccc(CNC(=O)[C@H]2CN(c3nc4ccncc4s3)CCN2S(=O)(=O)c2ccc(OC(F)(F)F)cc2)cc1
Assay metric: pIC50
Assay value: > 7.00

Input smiles: CCC(F)(F)c1ccc(CNC(=O)[C@H]2CN(c3cnc4cnc(C)nc4n3)CCN2S(=O)(=O)c2ccc(OC(F)(F)F)cc2)cc1
Assay metric: pIC50
Assay value: > 7.00

Input smiles: CC(=O)c1ncc2sc(N3CCN(S(=O)(=O)c4ccc(OC(F)(F)F)cc4)[C@@H](C(=O)NCc4ccc(OC(F)(F)F)cc4)C3)nc2n1
Assay metric: pIC50
Assay value: > 7.00

Input smiles: Cc1nc2nc(N3CCN(S(=O)(=O)c4ccc(OC(F)(F)F)cc4)[C@@H](C(=O)NCc4ccc(OC(F)(F)F)cc4)C3)sc2c(=O)[nH]1
Assay metric: pIC50
Assay value: > 7.00

Input smiles: O=C(NCc1ccc(OC(F)F)cc1)[C@H]1CN(c2nc3nc(Cl)ncc3s2)CCN1S(=O)(=O)c1ccc(C(F)(F)F)cc1
Assay metric: pIC50
Assay value: > 7.00

Origin of the recorded values: patent US8017612B2
